# assayNotes: Protein binding in ICR mouse plasma after 30 mins by ultra-filtration method
# Type: ADME, cell-free
# conditionsUsed: read-out: PPB (converted)
quantityMeasured: fraction unbound at 0.5 h

Problem: fraction unbound at 0.5 h lookup needed for CCO/N=C(\C(=O)N[C@@H]1C(=O)N2C(C(=O)[O-])=C(/C=C/C[n+]3cccc4cc(/C([O-])=N/C#N)ccc43)CS[C@H]12)c1csc(N)n1.[Na+] , thanks.
Result: 0.9

Problem: Could you tell me which fraction unbound at 0.5 h is on file for CCO/N=C(\C(=O)N[C@@H]1C(=O)N2C(C(=O)[O-])=C(C[n+]3ccc(-c4cc(/C([O-])=N/C#N)[nH]n4)cc3)CS[C@H]12)c1nc(N)sc1Cl.[Na+] ?
Result: 0.43

Problem: // query fraction unbound at 0.5 h value for entry CCO/N=C(\C(=O)N[C@@H]1C(=O)N2C(C(=O)[O-])=C(C=CC[n+]3ccc(-c4cc(/C([O-])=N/C#N)[nH]n4)cc3)CS[C@H]12)c1csc(N)n1.[Na+]
Result: 0.76

###

# assayNotes: AUC (0 to infinity) in mouse at 20 mg/kg, iv administered as bolus dose by band-culture bioassay
# conditionsUsed: in vivo
quantityMeasured: AUC(0-inf) (ng·h/mL)
# number only, unit ng·h/mL dropped from output

Problem: Can you look up the measured AUC(0-inf) of CCO/N=C(\C(=O)N[C@@H]1C(=O)N2C(C(=O)[O-])=C(C[n+]3ccc(-c4cc(/C([O-])=N/C#N)[nH]n4)cc3)CS[C@H]12)c1nc(N)sc1Cl.[Na+] for me?
Result: 41500

Problem: AUC(0-inf) for CCO/N=C(\C(=O)N[C@@H]1C(=O)N2C(C(=O)[O-])=C(/C=C/C[n+]3ccc(-c4c[nH]c(/C([O-])=N/C#N)c4)cc3)CS[C@H]12)c1csc(N)n1.[Na+] ?
Result: 17600

Problem: # lookup: AUC(0-inf) of CCO/N=C(\C(=O)N[C@@H]1C(=O)N2C(C(=O)[O-])=C(/C=C/C[n+]3ccc(-n4ccc(/C([O-])=N/C#N)n4)cc3)CS[C@H]12)c1csc(N)n1.[Na+]
Result: 16800

Problem: // returns reported AUC(0-inf) for input CCCO/N=C(\C(=O)N[C@@H]1C(=O)N2C(C(=O)[O-])=C(C[n+]3ccc(-c4cc(/C([O-])=N/C#N)[nH]n4)cc3)CS[C@H]12)c1csc(N)n1.[Na+] (stereo in doubt)
Result: 8900

Problem: # get_value(readout='AUC(0-inf)', item= CO/N=C(\C(=O)N[C@@H]1C(=O)N2C(C(=O)[O-])=C(C[n+]3ccn4ncccc43)CS[C@H]12)c1nsc(N)n1 [CEFOZOPRAN] )
Result: 30300

###

Please respond with reported MIC for every item in the list.
# System: Escherichia coli
# assayNotes: Antibacterial activity against Escherichia coli NIHJ JC-2 after 20 hrs by agar dilution method
# Assay type: functional
# conditionsUsed: NIHJ JC-2, 20 h
Give the value, in units of µg/mL, as a plain number.

Problem: # returns recorded MIC (system: Escherichia coli) for CCO/N=C(\C(=O)N[C@@H]1C(=O)N2C(C(=O)[O-])=C(/C=C/C[n+]3cccc4cc(/C([O-])=N/C#N)ccc43)CS[C@H]12)c1csc(N)n1.[Na+]
Result: 0.125

Problem: Hello, I am looking for reported MIC with Escherichia coli for CCO/N=C(\C(=O)N[C@@H]1C(=O)N2C(C(=O)[O-])=C(C[n+]3ccc(-c4cc(/C([O-])=N/C#N)[nH]n4)cc3)CS[C@H]12)c1csc(N)n1.[Na+] (stereo in doubt) . Could you help?
Result: 0.5

Problem: Give Escherichia coli MIC for CCO/N=C(\C(=O)N[C@@H]1C(=O)N2C(C(=O)[O-])=C(/C=C/C[n+]3ccc(-c4c[nH]c(/C([O-])=N/C#N)c4)cc3)CS[C@H]12)c1csc(N)n1.[Na+]
Result: 0.125

Problem: What MIC appears in the records for this compound with Escherichia coli? CCO/N=C(\C(=O)N[C@@H]1C(=O)N2C(C(=O)[O-])=C(/C=C/C[n+]3ccc4c(/C([O-])=N\C#N)cccc4c3)CS[C@H]12)c1csc(N)n1.[Na+]
Result: 0.125

Problem: Request: MIC, test system Escherichia coli, entry N#C/N=C(\[O-])c1cc(-c2cc[n+](CC3=C(C(=O)[O-])N4C(=O)[C@@H](NC(=O)/C(=N\OCCF)c5csc(N)n5)[C@H]4SC3)cc2)n[nH]1.[Na+] (stereo in doubt)
Result: 0.25

###

Please respond with reported MIC for every item in the list.
# Test system: Staphylococcus aureus
# assayNotes: Antibacterial activity against Staphylococcus aureus SMITH
# Format: functional
Lab book: enter the figure in µg/mL, no units written.

Problem: What value of MIC has been reported for the following compound? CCO/N=C(\C(=O)N[C@@H]1C(=O)N2C(C(=O)[O-])=C(C[n+]3ccc(-c4cc[nH]c4)cc3)CS[C@H]12)c1nsc(N)n1
Result: 0.4

Problem: Quick one: MIC for CCO/N=C(\C(=O)N[C@@H]1C(=O)N2C(C(=O)[O-])=C(C[n+]3ccc(-c4c[nH]c(C(=O)O)c4)cc3)CS[C@H]12)c1nsc(N)n1 ?
Result: 3.1

Problem: For the compound CCO/N=C(\C(=O)N[C@@H]1C(=O)N2C(C(=O)[O-])=C(C[n+]3ccc(-c4c[nH]c(C(=O)NC#N)c4)cc3)CS[C@H]12)c1nsc(N)n1 , what MIC is on record?
Result: 1.6

Problem: Entry CO/N=C(\C(=O)N[C@@H]1C(=O)N2C(C(=O)[O-])=C(C[n+]3ccn4ncccc43)CS[C@H]12)c1nsc(N)n1 : reported MIC = ?
Result: 0.8

###

For each record, write down the corresponding AUC.
# assayNotes: AUC (0 to infinity) in monkey at 20 mg/kg, iv administered as bolus dose by HPLC method
# Type: ADME, organism-based, Macaca mulatta
# Set-up: dose 20 mg/kg, time infinity, route intravenous
# conditionsUsed: rhesus monkey, in vivo
Give just the numeric value; ng·h/mL need not be written.

Problem: Query: AUC; subject: CO/N=C(\C(=O)N[C@@H]1C(=O)N2C(C(=O)O)=C(CSc3nc(=O)c(=O)[nH]n3C)CS[C@H]12)c1csc(N)n1 [CEFTRIAXONE]
Result: 21900

Problem: May I ask what AUC has been recorded for CCO/N=C(\C(=O)N[C@@H]1C(=O)N2C(C(=O)[O-])=C(/C=C/C[n+]3ccc(-c4c[nH]c(/C([O-])=N/C#N)c4)cc3)CS[C@H]12)c1csc(N)n1.[Na+] ?
Result: 20200

Problem: Which AUC value belongs to CCO/N=C(\C(=O)N[C@@H]1C(=O)N2C(C(=O)[O-])=C(/C=C/C[n+]3ccc(-c4cc(/C([O-])=N/C#N)[nH]n4)cc3)CS[C@H]12)c1csc(N)n1.[Na+] ?
Result: 35400

Problem: Query: AUC; subject: CO/N=C(\C(=O)N[C@@H]1C(=O)N2C(C(=O)[O-])=C(C[n+]3ccn4ncccc43)CS[C@H]12)c1nsc(N)n1 [CEFOZOPRAN]
Result: 15000

###

Field: fraction unbound at 0.5 h. Provide a value for each of the molecules that follow.
# assayNotes: Protein binding in ICR mouse plasma after 30 mins by ultra-filtration method
# Type: ADME, cell-free
# conditionsUsed: read-out: PPB (converted)
Answer field: number only, no words.

Problem: # lookup: fraction unbound at 0.5 h of CCO/N=C(\C(=O)N[C@@H]1C(=O)N2C(C(=O)[O-])=C(/C=C/C[n+]3ccc(-c4c[nH]c(/C([O-])=N/C#N)c4C)cc3)CS[C@H]12)c1csc(N)n1.[Na+]
Result: 0.54

Problem: # lookup: fraction unbound at 0.5 h of CO/N=C(\C(=O)N[C@@H]1C(=O)N2C(C(=O)[O-])=C(C[n+]3ccc(-c4cc(/C([O-])=N/C#N)[nH]n4)cc3)CS[C@H]12)c1csc(N)n1.[Na+] (stereo in doubt)
Result: 0.85

Problem: Fill blank: measured fraction unbound at 0.5 h of the molecule CCO/N=C(\C(=O)N[C@@H]1C(=O)N2C(C(=O)[O-])=C(/C=C/C[n+]3ccc(-c4cc(/C([O-])=N/C#N)n(C)c4)cc3)CS[C@H]12)c1csc(N)n1.[Na+] is ____.
Result: 0.67

Problem: So what's the measured fraction unbound at 0.5 h for this one? CCO/N=C(\C(=O)N[C@@H]1C(=O)N2C(C(=O)[O-])=C(/C=C/C[n+]3ccc(-c4cc(/C([O-])=N/C#N)[nH]n4)cc3)CS[C@H]12)c1csc(N)n1.[Na+]
Result: 0.75

Problem: Item CCO/N=C(\C(=O)N[C@@H]1C(=O)N2C(C(=O)[O-])=C(/C=C/C[n+]3cccc(/C([O-])=N/C#N)c3)CS[C@H]12)c1csc(N)n1.[Na+] has what recorded fraction unbound at 0.5 h?
Result: 0.94

Problem: Field request: fraction unbound at 0.5 h | item: CCO/N=C(\C(=O)N[C@@H]1C(=O)N2C(C(=O)[O-])=C(/C=C/C[n+]3ccc4sc(/C([O-])=N/C#N)nc4c3)CS[C@H]12)c1csc(N)n1.[Na+]
Result: 0.59

Problem: Data request, read-out fraction unbound at 0.5 h, for CCO/N=C(\C(=O)N[C@@H]1C(=O)N2C(C(=O)[O-])=C(/C=C/C[n+]3ccc(-c4cc(/C([O-])=N/C#N)on4)cc3)CS[C@H]12)c1csc(N)n1.[Na+]
Result: 0.78

Problem: What does the record list as fraction unbound at 0.5 h for CO/N=C(\C(=O)N[C@@H]1C(=O)N2C(C(=O)O)=C(CSc3nc(=O)c(=O)[nH]n3C)CS[C@H]12)c1csc(N)n1 ?
Result: 0.06

Problem: Dear colleague, I am looking for the recorded fraction unbound at 0.5 h of the following molecule: CCO/N=C(\C(=O)N[C@@H]1C(=O)N2C(C(=O)[O-])=C(/C=C/C[n+]3ccc(-c4csc(/C([O-])=N/C#N)c4)cc3)CS[C@H]12)c1csc(N)n1.[Na+]
Result: 0.63

Problem: Looking for the measured fraction unbound at 0.5 h of CCO/N=C(\C(=O)N[C@@H]1C(=O)N2C(C(=O)[O-])=C(/C=C/C[n+]3ccc(/C([O-])=N/C#N)cc3)CS[C@H]12)c1csc(N)n1.[Na+] , can you help?
Result: 0.92

Problem: Request the reported fraction unbound at 0.5 h associated with N#C/N=C(\[O-])c1cc(-c2cc[n+](CC3=C(C(=O)[O-])N4C(=O)[C@@H](NC(=O)/C(=N\OCCF)c5csc(N)n5)[C@H]4SC3)cc2)n[nH]1.[Na+] (stereo in doubt)
Result: 0.76

Problem: Param item = CCO/N=C(\C(=O)N[C@@H]1C(=O)N2C(C(=O)[O-])=C(/C=C/C[n+]3cccc4[nH]c(/C([O-])=N/C#N)cc43)CS[C@H]12)c1csc(N)n1.[Na+] ; retrieve measured fraction unbound at 0.5 h.
Result: 0.64

Problem: Value lookup for fraction unbound at 0.5 h; key = CCO/N=C(\C(=O)N[C@@H]1C(=O)N2C(C(=O)[O-])=C(/C=C/C[n+]3ccc(-c4csc(/C([O-])=N/C#N)n4)cc3)CS[C@H]12)c1csc(N)n1.[Na+]
Result: 0.69

Problem: Query: fraction unbound at 0.5 h; subject: CCO/N=C(\C(=O)N[C@@H]1C(=O)N2C(C(=O)[O-])=C(/C=C/C[n+]3ccc(-n4ccc(/C([O-])=N/C#N)n4)cc3)CS[C@H]12)c1csc(N)n1.[Na+]
Result: 0.86

Problem: Name the recorded fraction unbound at 0.5 h for CCO/N=C(\C(=O)N[C@@H]1C(=O)N2C(C(=O)[O-])=C(/C=C/C[n+]3ccc4[nH]c(/C([O-])=N/C#N)cc4c3)CS[C@H]12)c1csc(N)n1.[Na+] .
Result: 0.73

Problem: What does the data say about its fraction unbound at 0.5 h? Entry: CCCO/N=C(\C(=O)N[C@@H]1C(=O)N2C(C(=O)[O-])=C(C[n+]3ccc(-c4cc(/C([O-])=N/C#N)[nH]n4)cc3)CS[C@H]12)c1csc(N)n1.[Na+] (stereo in doubt)
Result: 0.63

Problem: Quick check: fraction unbound at 0.5 h of CCO/N=C(\C(=O)N[C@@H]1C(=O)N2C(C(=O)[O-])=C(/C=C/C[n+]3ccc(-c4cc(/C([O-])=N/C#N)n(C)n4)cc3)CS[C@H]12)c1csc(N)n1.[Na+] ?
Result: 0.59
